# Measurement Protocol: Drug uptake in brain of rat model of complete Freund's adjuvant-induced inflammatory pain at 30 mg/kg, po after 1 hr
# Format: ADME, organism-based
# Settings: read-out: Drug uptake
Readout Type: concentration at 1 h (nM)
Numeric only. Scale: nM

Quickly give me recorded concentration at 1 h for "COc1ccccc1-n1nc(C2CC(C)(C)OC(C)(C)C2)cc1-c1csc(Cl)c1" 2200

----------
# Measurement Protocol: Cmax in rat at 6 mg/kg, po
# Assay type: ADME, organism-based
# Parameters: dose 6 mg/kg, route oral
# Settings: in vivo
Readout Type: Cmax (ng/mL)
Your answer should be a plain number; it is taken to be in ng/mL.

Hello, please tell me recorded Cmax for this one: "COc1ccccc1-n1nc(C2CC(C)(C)OC(C)(C)C2)cc1-c1csc(Cl)c1" 369
